The reported numbers originate from PubChem BioAssay (NCI).

- System: HCT-116 colon
- protocol.text: NCI tumour cell line growth inhibition, 48 h
Entries and their TGI

| compound | TGI |
| --- | --- |
| Cn1cc(-c2csc(-c3cn(C)c4ccc(F)cc34)n2)c2cnccc21 | 3.06 µM |
| COc1ccc2nc(-c3ccccc3)c(=O)[nH]c2c1 | > 100 µM |
| CCOC(=O)CCC1(CCC(=O)OCC)CCCCCCCCC(CCC(=O)OCC)(CCC(=O)OCC)C(=O)C1=O | > 100 µM |
| CC(=O)O[C@@]12CO[C@@H]1CC(O)[C@@]1(C)C(=O)[C@H](O)C3=C(C)C(O)C[C@@](O)(C(OC(=O)c4ccccc4)C12)C3(C)C (some centres undefined) | 19.2 µM |
| C=C(C)[C@@H]1CC[C@]2(C)[C@H](CC[C@@H]3[C@@H]([C@@](C)(O)CCC=C(C)C)CC[C@]32C)[C@@]1(C)CCC(=O)O | 29.8 µM |
| CC(=O)[CH-]C(=O)c1ccccc1.CC(=O)[CH-]C(=O)c1ccccc1.O=S(=O)([O-])c1cc([O-])c2c([O-])cc(S(=O)(=O)[O-])cc2c1.[Na+].[Ti+4] | > 100 µM |
| CC(C)(C)c1cc(C(=O)/C=C/c2ccc(C(=O)O)cc2)cc(C(C)(C)C)c1 | 10.4 µM |
| CSc1ccc2c(cc1=O)[C@@H](NC(=O)c1cc(O)c(O)c(O)c1)CCc1cc(O)c(O)c(O)c1-2 | 29.4 µM |

Next up:
Please tell me: TGI of Cc1c2ccc3ccccc3c2c[n+]2ccccc12 , system HCT-116 colon? > 83.3 µM

---

- Tested on: NCI-H522 lung
- protocol.text: NCI tumour cell line growth inhibition, 48 h; in the data active = GI50 below about 0.43 µM; inactive = the rest
Please answer using one outcome listed in class 1 = active, class 0 = inactive

Below, 2 compounds whose answers are already recorded.
| compound | group |
| --- | --- |
| COc1ccc(-c2nn(-c3cccc(Cl)c3)cc2-c2nc(N)[nH]c(=O)c2C#N)cc1 | class 0 |
| COc1ccc(-c2cc(Nc3ccnc(N4CCOCC4)n3)on2)cc1 | class 1 |

Status in this test for NCCCOc1cc(Cl)ccc1NC(=O)c1cc2ccccc2cc1OCCCN ? class 0

Tell me the recorded outcome of this test for c1ccc2c(c1)c1ccccc1c1ccccc21 . class 0

How did this test come out for NC(N)=N/N=C(\N=Nc1ccccc1)c1ccc(Cl)cc1 ? class 0

What outcome does the record of this test show for O=C(NNc1cnccn1)c1nc2cc(F)ccc2n2cccc12 ? class 1

Can you look up the reported call for NCCN.O=C([O-])[O-].O=C([O-])[O-].[Co+3].[K+] for me? class 0

What outcome does the record of this test show for COc1cc(/C=C2\CCC/C(=C\c3ccc(OCC4CO4)c(OC)c3)C2=O)ccc1OCC1CO1 (centres undefined) ? class 0

Check the results log: what was the call for COc1ccc(-c2noc(N)c2-c2cc(OC)c3c(c2)OCO3)cc1 ? class 0

---

- Test system: SK-OV-3 ovarian
- protocol.text: NCI tumour cell line growth inhibition, 48 h
readout.type: TGI

// below: answered compounds
| compound | TGI |
| --- | --- |
| O=C1C=CC(=CC=C2C=CN(CCCCCCCCCCC(=O)NCCCCCCCCCCCC(=O)O)C=C2)C=C1 | > 100 µM |
| Cc1ccc2c(c1-c1ccccc1)C(=O)OC2 | > 100 µM |
| c1ccc2c3[nH]c(c2c1)=Nc1ccc(cc1)-c1nc2ccc(cc2o1)N=c1[nH]c(c2ccccc12)=Nc1ccc2nc(oc2c1)-c1ccc(cc1)N=3 | > 100 µM |
| COc1cc(OC)c2sc(-c3ccc(-n4cncc4-c4cc(OC)c(OC)c(OC)c4)cc3)nc2c1 | > 100 µM |
| Nc1c(C(=O)Nc2ccccc2Cl)sc2nc3c(cc12)C(=O)CCC3 | > 50.5 µM |

Give its TGI value. Item: CC(=O)c1c(N=[N+]=[N-])c2cccc3c2n(c1=O)CCC3 > 100 µM

# get_value(readout='TGI', item= COC(=O)c1c[nH]cc1CCCCc1c[nH]cc1C(=O)OC ) > 100 µM

Please give the measured TGI for this compound: CC(=O)Nc1c(C(=N)C#N)ncn1CCO > 100 µM

Name the reported TGI value associated with the compound NC(CCc1ncc(C(=O)O)s1)C(=O)O (configuration not stated) > 100 µM
